MEASURED_ON: T1, His-tagged human IGF1R protein (ACRO Biosystems Inc., Cat #: IGR-H5229) (human, UniProt P08069 31-932)
T1 construct: Bought protein; also called hIGF1R-His; not shown: His tag
TEST_SUMMARY: SPR (Biacore 8K), antibody captured on Protein A chip, antigen as analyte, 1:1 model
Experimental: The affinity of the anti-IGF1R antibodies to His-tagged human IGF1R protein (hIGF1R-His, ACRO Biosystems Inc., Cat #: IGR-H5229) and His-tagged cynomolgus monkey IGF1R protein (cIGF1R-His, ACRO Biosystems Inc., Cat #: IGR-C5225) were measured using surface plasmon resonance (SPR) using Biacore™ (Biacore, Inc., Piscataway N.J.) 8K biosensor equipped with pre-immobilized Protein A sensor chips. […]
QUANTITY_MEASURED: pKd
Quick note: pKd means taking -log10 of the concentration in moles per liter.

Known results for binders:
binder="anti-IGF1R antibody 10D1 (antibody, human IgG1, V domains shown) VH: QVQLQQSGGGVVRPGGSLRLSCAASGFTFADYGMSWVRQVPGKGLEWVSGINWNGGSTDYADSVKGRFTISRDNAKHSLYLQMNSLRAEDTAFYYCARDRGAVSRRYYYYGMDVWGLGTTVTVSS VL: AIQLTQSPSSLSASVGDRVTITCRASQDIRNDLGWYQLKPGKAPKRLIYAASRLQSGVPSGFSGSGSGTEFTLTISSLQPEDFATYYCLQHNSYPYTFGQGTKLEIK" quantity_measured=pKd result=8.79
binder="anti-IGF1R antibody 10G1 (antibody, human IgG1, V domains shown) VH: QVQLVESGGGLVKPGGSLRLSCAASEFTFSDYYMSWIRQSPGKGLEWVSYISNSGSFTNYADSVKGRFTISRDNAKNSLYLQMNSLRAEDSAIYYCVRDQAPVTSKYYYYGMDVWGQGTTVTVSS VL: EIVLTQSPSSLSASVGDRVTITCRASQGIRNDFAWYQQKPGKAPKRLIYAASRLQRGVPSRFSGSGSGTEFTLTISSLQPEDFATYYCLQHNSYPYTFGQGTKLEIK" quantity_measured=pKd result=8.40
binder="anti-IGF1R antibody 12A4 (antibody, V domains shown) VH: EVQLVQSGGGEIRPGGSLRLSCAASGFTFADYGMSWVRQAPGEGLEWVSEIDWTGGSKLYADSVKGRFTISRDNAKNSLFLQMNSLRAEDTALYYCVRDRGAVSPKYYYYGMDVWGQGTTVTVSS VL: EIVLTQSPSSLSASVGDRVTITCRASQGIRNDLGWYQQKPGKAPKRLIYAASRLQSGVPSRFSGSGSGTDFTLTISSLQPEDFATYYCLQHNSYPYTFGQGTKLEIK" quantity_measured=pKd result=9.67

// anti-IGF1R antibody 12D1 (antibody, human IgG1, V domains shown) VH: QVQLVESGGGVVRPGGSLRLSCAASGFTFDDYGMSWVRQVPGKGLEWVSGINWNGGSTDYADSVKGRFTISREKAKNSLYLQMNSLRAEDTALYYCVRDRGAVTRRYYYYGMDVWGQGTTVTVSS VL: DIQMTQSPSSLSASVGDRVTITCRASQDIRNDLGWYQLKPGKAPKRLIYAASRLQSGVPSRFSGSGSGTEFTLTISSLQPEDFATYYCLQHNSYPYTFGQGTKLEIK : pKd value = 8.76
